Where do these numbers come from? They come from paper PMC6516726.

Molecular target: L25A PETNR (Enterobacter cloacae, UniProt P71278, L26A)
Sequence (P71278 entry or part of it L26A): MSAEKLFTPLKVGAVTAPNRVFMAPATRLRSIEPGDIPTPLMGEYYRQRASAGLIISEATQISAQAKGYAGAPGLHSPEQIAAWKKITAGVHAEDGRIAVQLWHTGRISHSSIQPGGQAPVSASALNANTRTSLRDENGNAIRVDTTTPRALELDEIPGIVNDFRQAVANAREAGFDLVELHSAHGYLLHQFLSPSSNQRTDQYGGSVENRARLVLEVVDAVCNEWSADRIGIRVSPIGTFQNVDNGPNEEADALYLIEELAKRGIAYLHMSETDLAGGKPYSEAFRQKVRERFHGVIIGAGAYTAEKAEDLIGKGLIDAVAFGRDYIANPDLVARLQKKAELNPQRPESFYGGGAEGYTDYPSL
Settings: 35 °C; 10 mM NADPH or 25 mM NADH; pH 7.0
Endpoint: A2 (amplitude of kobs2 out of total absorbance change) (%)
Return type: number; implicit unit %.

* NC(=O)C1=CN([C@@H]2O[C@H](COP(=O)(O)OP(=O)(O)OC[C@H]3O[C@@H](n4cnc5c(N)ncnc54)[C@H](OP(=O)(O)O)[C@@H]3O)[C@@H](O)[C@H]2O)C=CC1 | 16.48
* NC(=O)C1=CN([C@@H]2O[C@H](COP(=O)(O)OP(=O)(O)OC[C@H]3O[C@@H](n4cnc5c(N)ncnc54)[C@H](O)[C@@H]3O)[C@@H](O)[C@H]2O)C=CC1 | 12.72
* [2H][C@@H]1C=CN([C@@H]2O[C@H](COP(=O)(O)OP(=O)(O)OC[C@H]3O[C@@H](n4cnc5c(N)ncnc54)[C@H](OP(=O)(O)O)[C@@H]3O)[C@@H](O)[C@H]2O)C=C1C(N)=O [(R)-[4-^2H]-NADPH] | 14.06

Given the entry [2H][C@@H]1C=CN([C@@H]2O[C@H](COP(=O)(O)OP(=O)(O)OC[C@H]3O[C@@H](n4cnc5c(N)ncnc54)[C@H](O)[C@@H]3O)[C@@H](O)[C@H]2O)C=C1C(N)=O [(R)-[4-^2H]-NADH] , what A2 (amplitude of kobs2 out of total absorbance change) was observed with L25A PETNR (Enterobacter cloacae, UniProt P71278, L26A)?
15.60

* * *

Target: L25A PETNR (Enterobacter cloacae, UniProt P71278, L26A)
Details: 40 °C; 10 mM NADPH or 25 mM NADH; pH 7.0
# kobs1 annotations
Return type: number; implicit unit s⁻¹.

* [2H][C@@H]1C=CN([C@@H]2O[C@H](COP(=O)(O)OP(=O)(O)OC[C@H]3O[C@@H](n4cnc5c(N)ncnc54)[C@H](OP(=O)(O)O)[C@@H]3O)[C@@H](O)[C@H]2O)C=C1C(N)=O [(R)-[4-^2H]-NADPH] | 12.39

Fill in the blank: the reported kobs1 of [2H][C@@H]1C=CN([C@@H]2O[C@H](COP(=O)(O)OP(=O)(O)OC[C@H]3O[C@@H](n4cnc5c(N)ncnc54)[C@H](O)[C@@H]3O)[C@@H](O)[C@H]2O)C=C1C(N)=O [(R)-[4-^2H]-NADH] is ____.
1.070

Fill in the blank: the reported kobs1 of "NC(=O)C1=CN([C@@H]2O[C@H](COP(=O)(O)OP(=O)(O)OC[C@H]3O[C@@H](n4cnc5c(N)ncnc54)[C@H](O)[C@@H]3O)[C@@H](O)[C@H]2O)C=CC1" is ____.
6.74

Fill in the blank: the reported kobs1 of "NC(=O)C1=CN([C@@H]2O[C@H](COP(=O)(O)OP(=O)(O)OC[C@H]3O[C@@H](n4cnc5c(N)ncnc54)[C@H](OP(=O)(O)O)[C@@H]3O)[C@@H](O)[C@H]2O)C=CC1" is ____.
71.16

* * *

# kobs1 annotations
Molecular target: L25A PETNR (Enterobacter cloacae, UniProt P71278, L26A)
Settings: 35 °C; 10 mM NADPH or 25 mM NADH; pH 7.0
Return type: number; implicit unit s⁻¹.

Known kobs1 results, listed for orientation:
* [2H][C@@H]1C=CN([C@@H]2O[C@H](COP(=O)(O)OP(=O)(O)OC[C@H]3O[C@@H](n4cnc5c(N)ncnc54)[C@H](O)[C@@H]3O)[C@@H](O)[C@H]2O)C=C1C(N)=O [(R)-[4-^2H]-NADH] | 0.885
* NC(=O)C1=CN([C@@H]2O[C@H](COP(=O)(O)OP(=O)(O)OC[C@H]3O[C@@H](n4cnc5c(N)ncnc54)[C@H](OP(=O)(O)O)[C@@H]3O)[C@@H](O)[C@H]2O)C=CC1 [NADPH] | 68.39
* [2H][C@@H]1C=CN([C@@H]2O[C@H](COP(=O)(O)OP(=O)(O)OC[C@H]3O[C@@H](n4cnc5c(N)ncnc54)[C@H](OP(=O)(O)O)[C@@H]3O)[C@@H](O)[C@H]2O)C=C1C(N)=O [(R)-[4-^2H]-NADPH] | 11.89

Now for another entry.
Fill in the blank: the reported kobs1 of NC(=O)C1=CN([C@@H]2O[C@H](COP(=O)(O)OP(=O)(O)OC[C@H]3O[C@@H](n4cnc5c(N)ncnc54)[C@H](O)[C@@H]3O)[C@@H](O)[C@H]2O)C=CC1 [NADH] is ____.
5.20
